Data origin, for the record: patent US20100183625A1

Target: T1, human plasma kallikrein (human pKal) (Homo sapiens, UniProt P03952)
T1 construct: two disulfide linked polypeptides; a heavy chain of approximately 52 kDa and a catalytic domain of approximately 34 kDa; host or cells: human plasma
T1 sequence (P03952 391-638 limits assumed): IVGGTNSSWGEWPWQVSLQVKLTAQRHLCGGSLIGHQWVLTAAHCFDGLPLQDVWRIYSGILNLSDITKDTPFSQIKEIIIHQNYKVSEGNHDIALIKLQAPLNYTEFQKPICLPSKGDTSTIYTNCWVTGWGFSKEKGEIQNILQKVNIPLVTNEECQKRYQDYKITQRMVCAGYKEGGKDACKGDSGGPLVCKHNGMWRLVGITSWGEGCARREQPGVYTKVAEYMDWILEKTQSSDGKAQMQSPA
T1 sequence (P03952 20-390 partner limits assumed): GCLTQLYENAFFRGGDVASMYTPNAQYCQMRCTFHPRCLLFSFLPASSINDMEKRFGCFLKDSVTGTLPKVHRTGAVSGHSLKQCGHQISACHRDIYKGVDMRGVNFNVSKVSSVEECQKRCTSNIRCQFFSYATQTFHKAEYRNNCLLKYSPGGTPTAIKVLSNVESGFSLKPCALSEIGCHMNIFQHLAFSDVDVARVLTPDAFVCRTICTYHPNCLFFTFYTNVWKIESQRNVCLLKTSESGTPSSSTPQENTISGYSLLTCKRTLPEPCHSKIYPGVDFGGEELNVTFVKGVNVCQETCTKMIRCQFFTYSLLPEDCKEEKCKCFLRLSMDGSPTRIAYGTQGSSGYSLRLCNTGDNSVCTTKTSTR
Assay: Ki,app against human pKal by steady state enzyme kinetics (in vitro protease cleavage assay, Pro-Phe-Arg-aminomethylcoumarin substrate)
Format: biochemical
Conditions: Table 6; read-out: Human pKal (Ki, app nM)
valueType: Ki (nM)
Kindly answer with a numeric value in nM, unit omitted.

- M137-E12: antibody inhibitor of pKal; HV-CDR3 … (antibody, V domains shown) VL: QSVLIQPPSVSGIPGQRVTISCSGNNSNFGSNTVTWYQQLPGTAPKLLIYSDSRRPSGVPDRFSGSRSDTSASLAISGLQSEDEAEYHCAAWDDSLNGVFGGGTKLTVL VH: EVQLLESGGGLVQPGGSLRLSCAASGFTFSDYRMQWVRQAPGKGLEWVSVIVPSGGNTMYADSVKGRFTISRDNSKNTLYLQMNSLRAEDTAVYYCARGGPGSSIAARRAPTGYYGMDVWGQGTTVTVSSASTKGPSVFPLAPSSKS: 79
- X81-B01: codon optimized and germlined version of X63-G06 as a full length human IgG produced in CHO cells (antibody, chains of the INN, looked up, V domains shown, IgG, codon optimized and germlined version of X63-G06 as a full length human IgG produced in CHO cells) VH: EVQLLESGGGLVQPGGSLRLSCAASGFTFSHYIMMWVRQAPGKGLEWVSGIYSSGGITVYADSVKGRFTISRDNSKNTLYLQMNSLRAEDTAVYYCAYRRIGVPRRDEFDIWGQGTMVTVSS VL: DIQMTQSPSTLSASVGDRVTITCRASQSISSWLAWYQQKPGKAPKLLIYKASTLESGVPSRFSGSGSGTEFTLTISSLQPDDFATYYCQQYNTYWTFGQGTKVEIK: 0.2
- M28-B11: antibody inhibitor of pKal; HV-CDR3 EGLLWFGENAFDI (antibody, V domains shown) VL: QSVLTQPPSVSVSPGQTATITCSGDQLGDKYVGWYQQKPGQSPILVIYQDTKRPSGIPERFSGSNSGNTATLTISGTHTVDEAHYYCQAWDTSTAGFGGGTKLTVL VH: EVQLLESGGGLVQPGGSLRLSCAASGFTFSWYTMVWVRQAPGKGLEWVSRIYPSGGWTKYADSVKGRFTISRDNSKNTLYLQMNSLRAEDTATYYCAREGLLWFGENAFDIWGQGTMVTVSSASTKGPSVFPLAPSSKS: 5.5

Entry M12-D05: antibody inhibitor of pKal; HV-CDR3 EGLLWFGENAFDI (antibody, V domains shown) VL: QSVLTQPPSVSVSPGQTATITCSGDQLGDKYVGWYQQKPGQSPILVIYQDTKRPSGIPERFSGSNSGNTATLTISGTHTVDEAHYYCQAWDTSTAGFGGGTKLTVL VH: EVQLLESGGGLVQPGGSLRLSCAASGFTFSWYTMVWVRQAPGKGLEWVSRIYPSGGWTKYADSVKGRFTISRDNSKNTLYLQMNSLRAEDTATYYCAREGLLWFGENAFDIWGQGTMVTVSSASTKGPSVFPLAPSSKS needs its Ki filled in; supply it.
5.2
